Molecular target: T1, MPDZ_12, O75970
T1 sequence (O75970 1857-1958, limits assumed, looked up): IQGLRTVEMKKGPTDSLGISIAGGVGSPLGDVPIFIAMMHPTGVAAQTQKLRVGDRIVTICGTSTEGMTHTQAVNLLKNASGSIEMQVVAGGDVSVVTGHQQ
Assay: holdup assay
Parameters: key: below the threshold = too weak to quantify, mostly under pKd 3.1 to 4
Conditions: plain residues with an end cap or a label only (N-terminal biotin on a linker: ado-ado)
METRIC: pKd

# BINDER, OBS_VALUE
data = [
    ("FLVTEFNVML [DFNB31, Q9P202]", "below the threshold"),
    ("DSEEELPTRL [GRK6, P43250]", 3.47),
    ("PDSYHRRDFW [U2AF2, P26368]", "below the threshold"),
    ("NKSEPFLTWL [WWTR1, Q9GZV5]", 4.9),
]
